# Tested on: HT29/Mit cells (mitoxantrone-resistant human colon carcinoma, BCRP overexpression)
# method summary: Antiproliferative activity, 72 h treatment, SRB assay, HT29/Mit
# experimental setup: read-out: Antiproliferative activity (IC50 ± S.D., μM) HT-29/Mit; 72 h. treatment
test readout: IC50 (µM)
// return numeric value only (unit: µM, not printed)

Name the recorded IC50 for CO/C1=C\C(C)=C\[C@@H](C)[C@@H](O)[C@@H](C)C/C(C)=C/C=C/[C@H](OC)[C@@H]([C@@H](C)[C@@H](O)[C@H](C)[C@@]2(O)C[C@@H](O)[C@H](C)[C@@H](C(C)C)O2)OC1=O [Bafilomycin A1, reference compound] . 0.005

---

# Test system: LoVo cells (human colon carcinoma)
# method summary: Antiproliferative activity, 72 h treatment, SRB assay, LoVo
# Assay type: cell-based
# experimental setup: 72 h. treatment; read-out: Antiproliferative activity (IC50 ± S.D., μM) LoVo
test readout: IC50 (µM)
Lab book: enter the figure in µM, no units written.

Given the entry N.N.[Cl][Pt][Cl] [Cisplatin, reference compound] , what IC50 was observed with LoVo cells (human colon carcinoma)? 0.7

---

Listing of recorded IC50 by entry.
# Test system: HT29 cells (human colon carcinoma)
# method summary: Antiproliferative activity, 72 h treatment, SRB assay, HT29
# Assay type: cell-based
# experimental setup: Homo sapiens, HT-29; 72 h. treatment; read-out: Antiproliferative activity (IC50 ± S.D., μM) HT-29
Please give a number only; it is taken to be in µM.

See these solved cases before continuing.
CC[C@@]1(O)C(=O)OCc2c1cc1n(c2=O)Cc2cc3c(CN(C)C)c(O)ccc3nc2-1 [Topotecan, reference compound] ... 0.07
COc1cc(C(=O)N(C)C2CC(C)(C)NC(C)(C)C2)ccc1-c1cc2cc(Cl)c(Cl)cc2[nH]1 ... 4.7
CCOc1cc(C(=O)NC2CCNCC2)ccc1-c1cc2cc(Cl)c(Cl)cc2[nH]1 ... 4.7
CO/C(=C\C=C\c1cc2cc(Cl)c(Cl)cc2[nH]1)C(=O)NC1CC(C)(C)N(C)C(C)(C)C1 ... 3.3
CCOc1cc(C(=O)NC2CCN(C)CC2)ccc1-c1cc2cc(Cl)c(Cl)cc2[nH]1 ... 3.8

# evaluate next
# input compound: "CCOc1cc(C(=O)NC2CC(C)(C)NC(C)(C)C2)ccc1-c1nc2cc(Cl)c(Cl)cc2[nH]1" ; wanted: its IC50 0.56

---

# Tested on: SK-N-BE(2) cells (human neuroblastoma)
# method summary: Antiproliferative activity, 48 h treatment, ATPlite luminescence assay, SK-N-BE(2)
# Type: cell-based
# experimental setup: 48 h. treatment; read-out: Antiproliferative activity (IC50 ± S.D., μM) SK-N-BE(2)
test readout: IC50 (µM)
Write the answer as a number in µM, unit excluded.

Sample N.N.[Cl][Pt][Cl] [Cisplatin, reference compound] — what was its IC50? 10.1
